assay: BSK_hDFCGF_SRB: Viability Assessment in the BioMAP Diversity Plus: hDFCGF Assay (AID 2283061); details: primary human foreskin fibroblasts;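 note: cells exposed to compound for 24 h before the read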
Calls of active or inactive are those of the source. Rule for the calls: active = hit-call score of the fitted dose curve at least 0.9, where 1 is the maximum; inactive = score below 0.9.
Outcomes: true for active, false for inactive

[
  {
    "compound": "CC(C)N1C(=O)c2ccccc2NS1(=O)=O",
    "classification": "false"
  },
  {
    "compound": "CCNP(=S)(OC)O/C(C)=C/C(=O)OC(C)C (stereo not drawn)",
    "classification": "false"
  },
  {
    "compound": "COC(=O)NS(=O)(=O)c1ccc(N)cc1",
    "classification": "false"
  },
  {
    "compound": "COCc1cnc(C2=NC(C)(C(C)C)C(=O)N2)c(C(=O)O)c1 (stereo not drawn)",
    "classification": "false"
  },
  {
    "compound": "Cc1cnc(C2=NC(C)(C(C)C)C(=O)N2)c(C(=O)O)c1 (stereo not drawn)",
    "classification": "false"
  },
  {
    "compound": "O=P(O)(O)CCCl",
    "classification": "false"
  },
  {
    "compound": "N#Cc1c[nH]cc1-c1cccc2c1OC(F)(F)O2",
    "classification": "true"
  },
  {
    "compound": "N#CN=C1SCCN1Cc1ccc(Cl)nc1",
    "classification": "false"
  },
  {
    "compound": "O=C1C2CC=CCC2C(=O)N1SC(Cl)(Cl)Cl (stereo not drawn)",
    "classification": "true"
  },
  {
    "compound": "CC(C)N1C(=O)N(c2ccccc2)CSC1=NC(C)(C)C",
    "classification": "true"
  },
  {
    "compound": "CC(C)=CC1C(C(=O)OCc2coc(Cc3ccccc3)c2)C1(C)C (stereo not drawn)",
    "classification": "false"
  },
  {
    "compound": "CC(C)Nc1nc(Cl)nc(NC(C)C)n1",
    "classification": "false"
  },
  {
    "compound": "Nc1c(Cl)c(F)nc(OCC(=O)O)c1Cl",
    "classification": "false"
  },
  {
    "compound": "CCOc1nc(F)cc2nc(S(=O)(=O)Nc3c(Cl)cccc3Cl)nn12",
    "classification": "false"
  },
  {
    "compound": "CCCCC(C#N)(Cn1cncn1)c1ccc(Cl)cc1 (stereo not drawn)",
    "classification": "false"
  },
  {
    "compound": "Cc1c(COC(=O)[C@@H]2[C@H](/C=C(\\Cl)C(F)(F)F)C2(C)C)cccc1-c1ccccc1",
    "classification": "false"
  },
  {
    "compound": "COCC(=O)N(c1c(C)cccc1C)C(C)C(=O)OC (stereo not drawn)",
    "classification": "false"
  },
  {
    "compound": "CC1(C)C(C=C(Cl)Cl)C1C(=O)OC(C#N)c1cccc(Oc2ccccc2)c1 (stereo not drawn)",
    "classification": "false"
  },
  {
    "compound": "CCCCOCN(C(=O)CCl)c1c(CC)cccc1CC",
    "classification": "true"
  },
  {
    "compound": "CC(C)Oc1cccc(NC(=O)c2ccccc2C(F)(F)F)c1",
    "classification": "true"
  },
  {
    "compound": "COP(=O)(OC)O/C(C)=C/C(=O)N(C)C",
    "classification": "false"
  },
  {
    "compound": "CC(C)(C)C(=O)C(Oc1ccc(Cl)cc1)n1cncn1 (stereo not drawn)",
    "classification": "false"
  },
  {
    "compound": "Cc1cc(C)nc(Nc2ccccc2)n1",
    "classification": "false"
  }
]
